System: Staphylococcus aureus 446
method-description: MIC, standard broth micro-dilution assay, SA 446
Type: cell-based
Design: unit not given here
reported-property: Minimal Inhibitory Concentration (MIC) SA 446
Number only, please.

Exercise: Any idea what its Minimal Inhibitory Concentration (MIC) SA 446 is? The compound is C[C@@H]1O[C@@H](O[C@H]2[C@H](Oc3c4cc5cc3Oc3ccc(cc3Cl)[C@@H](O[C@H]3C[C@](C)(N)[C@@H](O)[C@H](C)O3)[C@@H]3NC(=O)[C@H](NC(=O)[C@@H]5NC(=O)[C@H](CC(N)=O)NC(=O)[C@H](NCc5ccc(-c6ccccc6)cc5)[C@H](O)c5ccc(c(Cl)c5)O4)c4ccc(O)c(c4)-c4c(O)cc(O)cc4[C@@H](C(=O)O)NC3=O)O[C@H](CO)[C@@H](O)[C@@H]2O)C[C@](C)(N)[C@H]1O [Example 3, N^1- (p-PHENYLBENZYL)-DESLEUCYL-A82846B]
Key: 8

Exercise: State the recorded Minimal Inhibitory Concentration (MIC) SA 446 for this entry: C[C@@H]1O[C@@H](O[C@@H]2c3ccc(c(Cl)c3)Oc3cc4cc(c3O[C@@H]3O[C@H](CO)[C@@H](O)[C@H](O)[C@H]3O[C@H]3C[C@](C)(NCCCCCCc5ccccc5)[C@@H](O)[C@H](C)O3)Oc3ccc(cc3Cl)[C@@H](O)[C@@H](NCCCCCCc3ccccc3)C(=O)N[C@@H](CC(N)=O)C(=O)N[C@H]4C(=O)N[C@H]3C(=O)N[C@@H]2C(=O)N[C@H](C(=O)O)c2cc(O)cc(O)c2-c2cc3ccc2O)C[C@](C)(N)[C@H]1O
Key: 4

----------
Test system: Enterococcus faecium and faecalis (RESISTANT)
Assay type: cell-based
assay-context: geometric mean of 4-6 isolates
reported-property: Minimal Inhibitory Concentration (MIC) RESISTANT
Respond using a number only.

Exercise: # lookup: Minimal Inhibitory Concentration (MIC) RESISTANT of C[C@@H]1O[C@@H](O[C@@H]2c3ccc(c(Cl)c3)Oc3cc4cc(c3O[C@@H]3O[C@H](CO)[C@@H](O)[C@H](O)[C@H]3O[C@H]3C[C@](C)(NCc5ccc(-c6ccccc6)cc5)[C@@H](O)[C@H](C)O3)Oc3ccc(cc3Cl)[C@@H](O)[C@@H](NCCCCCCCCCCCCc3ccccc3)C(=O)N[C@@H](CC(N)=O)C(=O)N[C@H]4C(=O)N[C@H]3C(=O)N[C@@H]2C(=O)N[C@H](C(=O)O)c2cc(O)cc(O)c2-c2cc3ccc2O)C[C@](C)(N)[C@H]1O
Key: 45

Exercise: Quick one: Minimal Inhibitory Concentration (MIC) RESISTANT of C[C@@H]1O[C@@H](O[C@H]2[C@H](Oc3c4cc5cc3Oc3ccc(cc3Cl)[C@@H](O[C@H]3C[C@](C)(N)[C@@H](O)[C@H](C)O3)[C@@H]3NC(=O)[C@H](NC(=O)[C@@H]5NC(=O)[C@H](CC(N)=O)NC(=O)[C@H](NCCCCCCCCCCc5ccccc5)[C@H](O)c5ccc(c(Cl)c5)O4)c4ccc(O)c(c4)-c4c(O)cc(O)cc4[C@@H](C(=O)O)NC3=O)O[C@H](CO)[C@@H](O)[C@@H]2O)C[C@](C)(N)[C@H]1O ?
Key: 19

----------
Task for the reader: assign each of the following compounds its reported Minimal Inhibitory Concentration (MIC) SA 489.
Test system: Staphylococcus aureus 489
method-description: MIC, standard broth micro-dilution assay, SA 489
Type: cell-based
Set-up: unit not given here
Please give only the number in your answer, with no unit.

Exercise: Under Staphylococcus aureus 489: Minimal Inhibitory Concentration (MIC) SA 489 value of CCCCCCN[C@H]1C(=O)N[C@@H](CC(N)=O)C(=O)N[C@H]2C(=O)N[C@H]3C(=O)N[C@H](C(=O)N[C@H](C(=O)O)c4cc(O)cc(O)c4-c4cc3ccc4O)[C@H](O[C@H]3C[C@](C)(N)[C@@H](O)[C@H](C)O3)c3ccc(c(Cl)c3)Oc3cc2cc(c3O[C@@H]2O[C@H](CO)[C@@H](O)[C@H](O)[C@H]2O[C@H]2C[C@](C)(N)[C@@H](O)[C@H](C)O2)Oc2ccc(cc2Cl)[C@H]1O [Example 10, N^1 -n-HEXYLDESLEUCYL-A82846B] ?
Key: 16

Exercise: Fill in the recorded Minimal Inhibitory Concentration (MIC) SA 489 for this compound, with Staphylococcus aureus 489 as test system: C[C@@H]1O[C@@H](O[C@H]2[C@H](Oc3c4cc5cc3Oc3ccc(cc3Cl)[C@@H](O[C@H]3C[C@](C)(N)[C@@H](O)[C@H](C)O3)[C@@H]3NC(=O)[C@H](NC(=O)[C@@H]5NC(=O)[C@H](CC(N)=O)NC(=O)[C@H](NCCCCCCc5ccccc5)[C@H](O)c5ccc(c(Cl)c5)O4)c4ccc(O)c(c4)-c4c(O)cc(O)cc4[C@@H](C(=O)O)NC3=O)O[C@H](CO)[C@@H](O)[C@@H]2O)C[C@](C)(N)[C@H]1O [Example 14, N^1 -(6-PHENYL-n-HEXYL)DESLEUCYL-A82846B]
Key: 8

----------
Tested on: Staphylococcus aureus 489
method-description: MIC, standard broth micro-dilution assay, SA 489
Type: cell-based
Set-up: unit not given here
What Minimal Inhibitory Concentration (MIC) SA 489 was measured for each of the following?
I'd appreciate a reply containing only the number, no unit.

Exercise: Request - read-out Minimal Inhibitory Concentration (MIC) SA 489 | tested on Staphylococcus aureus 489 | molecule C[C@@H]1O[C@@H](O[C@@H]2c3ccc(c(Cl)c3)Oc3cc4cc(c3O[C@@H]3O[C@H](CO)[C@@H](O)[C@H](O)[C@H]3O[C@H]3C[C@](C)(NCc5ccc(-c6ccccc6)cc5)[C@@H](O)[C@H](C)O3)Oc3ccc(cc3Cl)[C@@H](O)[C@@H](NCCCCCCc3ccccc3)C(=O)N[C@@H](CC(N)=O)C(=O)N[C@H]4C(=O)N[C@H]3C(=O)N[C@@H]2C(=O)N[C@H](C(=O)O)c2cc(O)cc(O)c2-c2cc3ccc2O)C[C@](C)(N)[C@H]1O
Key: 4

Exercise: Lab note: need Minimal Inhibitory Concentration (MIC) SA 489 with Staphylococcus aureus 489 for entry C[C@@H]1O[C@@H](O[C@H]2[C@H](Oc3c4cc5cc3Oc3ccc(cc3Cl)[C@@H](O[C@H]3C[C@](C)(N)[C@@H](O)[C@H](C)O3)[C@@H]3NC(=O)[C@H](NC(=O)[C@@H]5NC(=O)[C@H](CC(N)=O)NC(=O)[C@H](NCc5ccc(-c6ccccc6)cc5)[C@H](O)c5ccc(c(Cl)c5)O4)c4ccc(O)c(c4)-c4c(O)cc(O)cc4[C@@H](C(=O)O)NC3=O)O[C@H](CO)[C@@H](O)[C@@H]2O)C[C@](C)(N)[C@H]1O [Example 3, N^1- (p-PHENYLBENZYL)-DESLEUCYL-A82846B] , please look it up.
Key: 8

Exercise: Give the reported Minimal Inhibitory Concentration (MIC) SA 489 for C[C@@H]1O[C@@H](O[C@@H]2c3ccc(c(Cl)c3)Oc3cc4cc(c3O[C@@H]3O[C@H](CO)[C@@H](O)[C@H](O)[C@H]3O[C@H]3C[C@](C)(NCc5ccc(-c6ccccc6)cc5)[C@@H](O)[C@H](C)O3)Oc3ccc(cc3Cl)[C@@H](O)[C@@H](NCCCCCCCCCCCCc3ccccc3)C(=O)N[C@@H](CC(N)=O)C(=O)N[C@H]4C(=O)N[C@H]3C(=O)N[C@@H]2C(=O)N[C@H](C(=O)O)c2cc(O)cc(O)c2-c2cc3ccc2O)C[C@](C)(N)[C@H]1O (system: Staphylococcus aureus 489).
Key: 64

----------
System: Staphylococcus aureus 446
method-description: MIC, standard broth micro-dilution assay, SA 446
Format: cell-based
Parameters: unit not given here
reported-property: Minimal Inhibitory Concentration (MIC) SA 446
A bare number is all that is needed in reply.

Exercise: Looking for the measured Minimal Inhibitory Concentration (MIC) SA 446 of CSc1ccc(CN[C@H]2C(=O)N[C@@H](CC(N)=O)C(=O)N[C@H]3C(=O)N[C@H]4C(=O)N[C@H](C(=O)N[C@H](C(=O)O)c5cc(O)cc(O)c5-c5cc4ccc5O)[C@H](O[C@H]4C[C@](C)(N)[C@@H](O)[C@H](C)O4)c4ccc(c(Cl)c4)Oc4cc3cc(c4O[C@@H]3O[C@H](CO)[C@@H](O)[C@H](O)[C@H]3O[C@H]3C[C@](C)(N)[C@@H](O)[C@H](C)O3)Oc3ccc(cc3Cl)[C@H]2O)cc1 , can you help?
Key: 32

Exercise: Give the measured Minimal Inhibitory Concentration (MIC) SA 446 of C[C@@H]1O[C@@H](O[C@H]2[C@H](Oc3c4cc5cc3Oc3ccc(cc3Cl)[C@@H](O[C@H]3C[C@](C)(N)[C@@H](O)[C@H](C)O3)[C@@H]3NC(=O)[C@H](NC(=O)[C@@H]5NC(=O)[C@H](CC(N)=O)NC(=O)[C@H](NCc5ccc(O)cc5)[C@H](O)c5ccc(c(Cl)c5)O4)c4ccc(O)c(c4)-c4c(O)cc(O)cc4[C@@H](C(=O)O)NC3=O)O[C@H](CO)[C@@H](O)[C@@H]2O)C[C@](C)(N)[C@H]1O [Example 13, N^1 -(p-HYDROXYBENZYL)-DESLEUCYL-A82846B] .
Key: 16
